# ASSAYED TARGET: Mu-type opioid receptor (Rattus norvegicus) (UniProt P33535)
# Sequence (P33535 whole entry): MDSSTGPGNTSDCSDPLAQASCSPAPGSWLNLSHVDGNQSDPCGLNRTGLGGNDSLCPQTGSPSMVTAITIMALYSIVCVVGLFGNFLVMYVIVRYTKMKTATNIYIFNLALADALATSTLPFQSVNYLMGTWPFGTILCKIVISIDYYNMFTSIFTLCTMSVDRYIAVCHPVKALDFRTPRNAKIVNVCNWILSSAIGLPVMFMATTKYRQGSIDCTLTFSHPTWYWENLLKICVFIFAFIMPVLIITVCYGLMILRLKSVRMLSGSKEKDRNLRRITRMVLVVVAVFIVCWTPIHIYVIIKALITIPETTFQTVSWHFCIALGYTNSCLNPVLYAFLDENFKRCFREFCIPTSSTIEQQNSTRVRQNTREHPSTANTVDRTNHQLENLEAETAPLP
# EXPERIMENT NOTES: Agonist activity at rat mu opioid receptor expressed in rat C6 cell membrane assessed as stimulation of [35S]GTPgammaS binding relative to DAMGO
# Assay type: functional, cell membranes
ASSAY READOUT: Activity

Worked set:
SUBSTANCE SMILES: COc1ccccc1/C=C/C(=O)N[C@@H]1CC[C@@]2(O)[C@H]3Cc4ccc(O)c5c4[C@@]2(CCN3CC2CC2)[C@H]1O5
Activity: 21%
--
SUBSTANCE SMILES: C=CCO[C@@]12CC[C@@H](NC(=O)/C=C/c3ccccc3)[C@@H]3Oc4c(O)ccc5c4[C@@]31CCN(CC1CC1)[C@@H]2C5
Activity: 39%
--
SUBSTANCE SMILES: O=C(/C=C/c1ccccc1)N[C@@H]1CC[C@@]2(OCc3ccccc3)[C@H]3Cc4ccc(O)c5c4[C@@]2(CCN3CC2CC2)[C@H]1O5
Activity: 19%

I have this molecule here, `O=C(/C=C/c1ccccc1[N+](=O)[O-])N[C@@H]1CC[C@@]2(O)[C@H]3Cc4ccc(O)c5c4[C@@]2(CCN3CC2CC2)[C@H]1O5` , and I need its recorded Activity.
6.7%

Where these numbers come from: ChEMBL document CHEMBL1152799
